target: Mitogen-activated protein kinase kinase kinase 14 (Homo sapiens); experiment: Inhibition of auto-phosphorylation of recombinant human NF-kappaB-inducing kinase (NIK/MAP3K14) activity
pIC50: −log10 of the molar value.
Reported pIC50 is given for each of the following compounds.
EXPERIMENTAL_ENDPOINT: pIC50

chemical_structure=O[C@@]1(c2cccc(-c3csc(-c4c[nH]c5ncccc45)n3)c2)C=Cc2cccnc21 experimental_endpoint=pIC50 meas_value="> 7.00"
chemical_structure=CN1CC[C@@](O)(c2cccc(-c3nc(-c4cc(N)nc5[nH]ccc45)cs3)c2)C1=O experimental_endpoint=pIC50 meas_value="< 6.30"
chemical_structure=Cc1cnc2c(-c3nc(-c4cccc([C@]5(O)CCn6ccnc65)c4)cs3)c[nH]c2n1 experimental_endpoint=pIC50 meas_value="> 7.00"
chemical_structure=O[C@@]1(c2cccc(-c3csc(-c4c[nH]c5ncccc45)n3)c2)CCc2cccnc21 experimental_endpoint=pIC50 meas_value="> 7.00"
chemical_structure=O=C1N(CC(F)(F)F)CC[C@@]1(O)c1cccc(-c2csc(-c3c[nH]c4nccnc34)n2)c1 experimental_endpoint=pIC50 meas_value="< 6.30"
chemical_structure=CN1CC[C@@](O)(c2cccc(-c3coc(-c4c[nH]c5ncccc45)c3)c2)C1=O experimental_endpoint=pIC50 meas_value="> 7.00"
chemical_structure=CN1C[C@](O)(c2cccc(-c3csc(-c4c[nH]c5nccnc45)n3)c2)C1=O experimental_endpoint=pIC50 meas_value="< 6.30"

----------
Reported values of IC50 for individual entries
Target: Mitogen-activated protein kinase kinase kinase 14 (Homo sapiens, UniProt Q99558)
Sequence (Q99558 whole entry): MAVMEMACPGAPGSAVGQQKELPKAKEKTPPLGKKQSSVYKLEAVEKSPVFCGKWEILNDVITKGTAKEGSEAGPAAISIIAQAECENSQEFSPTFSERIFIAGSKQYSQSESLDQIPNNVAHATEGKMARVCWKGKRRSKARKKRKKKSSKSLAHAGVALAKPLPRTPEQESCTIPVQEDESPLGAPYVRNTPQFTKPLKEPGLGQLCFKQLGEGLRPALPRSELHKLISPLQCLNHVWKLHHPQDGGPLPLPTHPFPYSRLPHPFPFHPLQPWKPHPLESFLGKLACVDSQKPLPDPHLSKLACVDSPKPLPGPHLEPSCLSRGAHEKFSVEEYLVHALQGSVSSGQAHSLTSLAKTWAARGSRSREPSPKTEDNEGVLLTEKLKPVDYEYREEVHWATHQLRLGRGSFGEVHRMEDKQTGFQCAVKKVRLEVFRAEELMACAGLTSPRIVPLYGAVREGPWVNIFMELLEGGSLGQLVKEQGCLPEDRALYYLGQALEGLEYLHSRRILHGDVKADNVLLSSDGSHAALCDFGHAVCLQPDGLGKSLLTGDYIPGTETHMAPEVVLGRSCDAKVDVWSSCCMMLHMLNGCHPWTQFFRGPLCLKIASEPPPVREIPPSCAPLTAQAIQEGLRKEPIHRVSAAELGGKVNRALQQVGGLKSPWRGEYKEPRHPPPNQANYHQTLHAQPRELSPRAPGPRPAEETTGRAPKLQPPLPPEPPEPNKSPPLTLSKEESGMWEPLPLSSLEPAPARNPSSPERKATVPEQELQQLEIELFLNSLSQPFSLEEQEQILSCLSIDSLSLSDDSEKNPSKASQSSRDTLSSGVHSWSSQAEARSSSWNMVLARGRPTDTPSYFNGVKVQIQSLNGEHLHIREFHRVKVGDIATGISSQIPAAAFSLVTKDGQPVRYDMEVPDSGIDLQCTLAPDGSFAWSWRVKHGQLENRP
Experiment: Inhibition of auto-phosphorylation of recombinant human NF-kappaB-inducing kinase (NIK/MAP3K14) activity
Description: NIK/MAP3K14 auto-phosphorylation activity was measured using the AlphaScreen (ascreen) format (Perkin Elmer). All compound6 tested were dissolved in dimethyl sulfoxide (DMSO) and further dilutions were made in assay buffer. […] Protein A Acceptor and Glutathione-Donor bead6 were added before reading using an EnVision Multilabel Plate Reader (Perkin Elmer). […] IC50 s were determined by fitting a sigmoidal curve to % inhibition of control versus Log compound concentration.
EXPERIMENTAL_ENDPOINT: IC50

chemical_structure=CN1CC[C@@](O)(c2cccc(-c3csc(-c4c[nH]c5ncncc45)n3)c2)C1=O subject_of_test="Mitogen-activated protein kinase kinase kinase 14 (Homo sapiens, UniProt Q99558)" meas_value="< 0.1 µM"
chemical_structure=O[C@@]1(c2cccc(-c3csc(-c4c[nH]c5ncccc45)n3)c2)CCCn2ccnc21 subject_of_test="Mitogen-activated protein kinase kinase kinase 14 (Homo sapiens, UniProt Q99558)" meas_value="< 0.1 µM"
chemical_structure=O[C@@H]1C[C@](O)(c2cccc(-c3csc(-c4c[nH]c5ncccc45)n3)c2)c2ncccc21 subject_of_test="Mitogen-activated protein kinase kinase kinase 14 (Homo sapiens, UniProt Q99558)" meas_value="> 0.5 µM"
chemical_structure=CN1CC[C@@](O)(c2cccc(-n3cnc(-c4c[nH]c5ncccc45)c3)c2)C1=O subject_of_test="Mitogen-activated protein kinase kinase kinase 14 (Homo sapiens, UniProt Q99558)" meas_value="> 0.5 µM"
chemical_structure=CN1CC[C@@](O)(c2cccc(-n3ncc(-c4c[nH]c5ncccc45)n3)c2)C1=O subject_of_test="Mitogen-activated protein kinase kinase kinase 14 (Homo sapiens, UniProt Q99558)" meas_value="< 0.1 µM"
chemical_structure=CN1CC[C@@](O)(c2cccc(-c3nc(-c4c[nH]c5ncccc45)sc3CO)c2)C1=O subject_of_test="Mitogen-activated protein kinase kinase kinase 14 (Homo sapiens, UniProt Q99558)" meas_value="< 0.1 µM"
chemical_structure=CN1CC[C@@](O)(c2cccc(-n3ccc(-c4c[nH]c5ncccc45)n3)c2)C1=O subject_of_test="Mitogen-activated protein kinase kinase kinase 14 (Homo sapiens, UniProt Q99558)" meas_value="< 0.1 µM"
chemical_structure=C[C@@](O)(c1cccc(-c2csc(-c3c[nH]c4nccnc34)n2)c1)c1ncc[nH]1 subject_of_test="Mitogen-activated protein kinase kinase kinase 14 (Homo sapiens, UniProt Q99558)" meas_value="> 0.5 µM"
chemical_structure=CN1CC[C@@](O)(c2cccc(-c3csc(-c4n[nH]c5ncccc45)n3)c2)C1=O subject_of_test="Mitogen-activated protein kinase kinase kinase 14 (Homo sapiens, UniProt Q99558)" meas_value="> 0.5 µM"
chemical_structure=CN1CC[C@@](O)(c2cccc(-c3csc(-n4ccc5nc(N)ccc54)n3)c2)C1=O subject_of_test="Mitogen-activated protein kinase kinase kinase 14 (Homo sapiens, UniProt Q99558)" meas_value="> 0.5 µM"
chemical_structure=O[C@]1(c2cccc(-c3csc(-c4c[nH]c5ncccc45)n3)c2)Cc2nccn2C1 subject_of_test="Mitogen-activated protein kinase kinase kinase 14 (Homo sapiens, UniProt Q99558)" meas_value="< 0.1 µM"
chemical_structure=Cn1ccnc1[C@@](C)(O)c1cccc(-c2csc(-c3c[nH]c4ncccc34)n2)c1 subject_of_test="Mitogen-activated protein kinase kinase kinase 14 (Homo sapiens, UniProt Q99558)" meas_value="> 0.5 µM"
chemical_structure=Cc1cnc2[nH]cc(-c3nc(-c4cccc([C@@]5(O)CCn6ccnc65)c4)cs3)c2n1 subject_of_test="Mitogen-activated protein kinase kinase kinase 14 (Homo sapiens, UniProt Q99558)" meas_value="< 0.1 µM"
chemical_structure=CN1C(=O)[C@@](O)(c2cccc(-c3csc(-c4c[nH]c5ncccc45)n3)c2)c2ncccc21 subject_of_test="Mitogen-activated protein kinase kinase kinase 14 (Homo sapiens, UniProt Q99558)" meas_value="> 0.5 µM"

----------
Measured pIC50 accompanies every entry in the list below.
target: Mitogen-activated protein kinase kinase kinase 14 (Homo sapiens, UniProt Q99558); assay: Inhibition of auto-phosphorylation of recombinant human NF-kappaB-inducing kinase (NIK/MAP3K14) activity
pIC50: −log10 of the molar value.
EXPERIMENTAL_ENDPOINT: pIC50

chemical_structure=CN1CC[C@@](O)(c2cccc(-c3nc(-c4c[nH]c5ncccc45)sc3C#N)c2)C1=O meas_value="< 6.30"
chemical_structure=O[C@]1(c2cccc(-c3csc(-c4c[nH]c5nccnc45)n3)c2)OCc2cccnc21 meas_value="> 7.00"
chemical_structure=Cc1ccnc2[nH]cc(-c3nc(-c4cccc([C@]5(O)CCn6ccnc65)c4)cs3)c12 meas_value="> 7.00"
chemical_structure=CN1CC[C@@](O)(c2cccc(-c3coc(-c4c[nH]c5ncccc45)n3)c2)C1=O meas_value="> 7.00"

----------
biological target: Mitogen-activated protein kinase kinase kinase 14 (Homo sapiens); assay: Inhibition of auto-phosphorylation of recombinant human NF-kappaB-inducing kinase (NIK/MAP3K14) activity
pIC50: −log10 of the molar value.
EXPERIMENTAL_ENDPOINT: pIC50

molecule="CN1C[C@@](O)(c2cccc(-c3csc(-c4c[nH]c5nccnc45)n3)c2)C1=O [WO2022104348, Example 45]" meas_value="< 6.30"
molecule="O[C@H]1C[C@](O)(c2cccc(-c3csc(-c4c[nH]c5ncccc45)n3)c2)c2ncccc21 [WO2022104348, Example 102]" meas_value="< 6.30"
molecule="CC1(C)Cc2cccnc2[C@@]1(O)c1cccc(-c2csc(-c3c[nH]c4ncccc34)n2)c1 [WO2022104348, Example 35]" meas_value="< 6.30"
molecule="O[C@]1(c2cccc(-c3csc(-c4c[nH]c5ncccc45)n3)c2)CCc2cccnc21 [WO2022104348, Example 1]" meas_value="< 6.30"
molecule="C[C@@]1(O)C[C@@](O)(c2cccc(-c3csc(-c4c[nH]c5ncccc45)n3)c2)c2ncccc21 [WO2022104348, Example 106]" meas_value="< 6.30"
molecule="N#Cc1cnc2[nH]cc(-c3nc(-c4cccc([C@]5(O)Cc6nccn6C5)c4)cs3)c2c1 [WO2022104348, Example 26]" meas_value="> 7.00"
molecule="CN1CC[C@@](O)(c2cccc(-c3ccc(-c4c[nH]c5ncccc45)o3)c2)C1=O [WO2022104348, Example 114]" meas_value="> 7.00"

----------
target: Mitogen-activated protein kinase kinase kinase 14 (Homo sapiens); assay: Inhibition of auto-phosphorylation of recombinant human NF-kappaB-inducing kinase (NIK/MAP3K14) activity
pIC50: −log10 of the molar value.
EXPERIMENTAL_ENDPOINT: pIC50

compound="O[C@]1(c2cccc(-c3csc(-c4c[nH]c5ncccc45)n3)c2)CCCn2ccnc21 [WO2022104348, Example 37]" meas_value="< 6.30"
compound="CN1CC[C@@](O)(c2cccc(-c3csc(-c4c[nH]c5ncc(C(=O)O)cc45)n3)c2)C1=O [WO2022104348, Example 51]" meas_value="> 7.00"
compound="O[C@@]1(c2cccc(-c3csc(-c4c[nH]c5nccnc45)n3)c2)CCn2ccnc21 [WO2022104348, Example 41]" meas_value="> 7.00"
compound="CN1CC[C@@](O)(c2cccc(-c3nc(-c4c[nH]c5ncccc45)sc3F)c2)C1=O [WO2022104348, Example 99]" meas_value="> 7.00"
compound="Cc1cc(-c2csc(-c3c[nH]c4nccnc34)n2)cc([C@]2(O)CCN(C)C2=O)c1 [WO2022104348, Example 68]" meas_value="> 7.00"
compound="CN1CC[C@@](O)(c2cccc(-c3csc(-c4c[nH]c5ncc(Cl)c(F)c45)n3)c2)C1=O [WO2022104348, Example 95]" meas_value="> 7.00"
compound="C[C@@]1(O)C[C@](O)(c2cccc(-c3csc(-c4c[nH]c5ncccc45)n3)c2)c2ncccc21 [WO2022104348, Example 107]" meas_value="< 6.30"
compound="CN1CC[C@@](O)(c2cccc(-n3cc(-c4c[nH]c5ncccc45)nn3)c2)C1=O [WO2022104348, Example 123]" meas_value="< 6.30"
compound="O[C@]1(c2cccc(-c3csc(-c4c[nH]c5ncccc45)n3)c2)C=Cc2cccnc21 [WO2022104348, Example 34]" meas_value="< 6.30"
compound="C[C@@](O)(c1cccc(-c2csc(-c3c[nH]c4ncccc34)n2)c1)c1ncc[nH]1 [WO2022104348, Example 80]" meas_value="< 6.30"
compound="CN1CC[C@@](O)(c2cccc(-c3cnc(-c4c[nH]c5ncccc45)n3C)c2)C1=O [WO2022104348, Example 120]" meas_value="< 6.30"
compound="CN1CC[C@@](O)(c2cccc(-c3nc(-c4c(Cl)cnc5[nH]ccc45)cs3)c2)C1=O [WO2022104348, Example 130]" meas_value="< 6.30"
compound="O=C1N(CC(F)(F)F)CC[C@]1(O)c1cccc(-c2csc(-c3c[nH]c4nccnc34)n2)c1 [WO2022104348, Example 43]" meas_value="< 6.30"
compound="O[C@@]1(c2cccc(-c3csc(-c4c[nH]c5ncc(Cl)c(F)c45)n3)c2)CCn2ccnc21 [WO2022104348, Example 97]" meas_value="> 7.00"

Values from BindingDB's records for patent WO2022104348
